- Tested on: B16V mouse melanoma cells
- procedure-details: Cytotoxicity determination (MTT)
- Type: cell-based
- condition-info: Mus musculus, 48 h, MTT viability, 48 h incubation, concentration at which 50% of the cells are vital
pIC50: −log10 of the molar value.

# compound, pIC50
records = [
    ("COc1ccc([C@@H]2CC(=O)c3c(O)cc(O[C@@H]4O[C@H](CO[C@@H]5O[C@@H](C)[C@H](O)[C@@H](O)[C@H]5O)[C@@H](O)[C@H](O)[C@H]4O)cc3O2)cc1O [Hesperidin]", "< 3.00"),
]

###

- procedure-details: Cytotoxicity determination (MTT)
- Type: cell-based, mouse
- condition-info: mouse, B16V mouse melanoma cells; Table 3, repeat of the Table 1 values; read-out: IC50 cytotox
# label = rule met if IC50 at 48 h < 40 µM else rule not met

# molecule, label-value
data = [
    ("C[C@@H]1O[C@@H](O[C@H]2[C@H](Oc3cc(O)c4c(c3)OC(c3ccc(O)cc3)CC4=O)O[C@H](CO)[C@@H](O)[C@@H]2O)[C@H](O)[C@H](O)[C@H]1O (stereo partly drawn) [Naringin]", "rule not met"),
    ("O=C1C[C@@H](c2ccc(O)cc2)Oc2cc(O)cc(O)c21 [Naringenin]", "rule met"),
    ("O=c1cc(-c2ccc(O)c(O)c2)oc2cc(O)cc(O)c12 [Luteolin]", "rule met"),
    ("O=c1c(O)c(-c2ccc(O)cc2)oc2cc(O)cc(O)c12 [Kaempferol]", "rule not met"),
    ("O=c1c(O)c(-c2ccc(O)c(O)c2)oc2cc(O)cc(O)c12 [Quercetin]", "rule not met"),
    ("O=c1cc(-c2ccc(O)cc2)oc2cc(O)cc(O)c12 [Apigenin]", "rule met"),
    ("COc1ccc(C2CC(=O)c3c(O)cc(OC4OC(CO)C(O)C(O)C4OC4OC(C)C(O)C(O)C4O)cc3O2)cc1O (stereo not drawn) [Neohesperidin]", "rule not met"),
    ("COc1ccc([C@@H]2CC(=O)c3c(O)cc(O[C@@H]4O[C@H](CO[C@@H]5O[C@@H](C)[C@H](O)[C@@H](O)[C@H]5O)[C@@H](O)[C@H](O)[C@H]4O)cc3O2)cc1O [Hesperidin]", "rule not met"),
]

###

- System: B16V mouse melanoma cells
- procedure-details: Cytotoxicity determination (MTT)
- Format: cell-based
- condition-info: Mus musculus; MTT viability, 48 h incubation, concentration at which 50% of the cells are vital; read-out: IC50
pIC50: −log10 of the molar value.
pIC50 listing for selected molecules.
reported-property: pIC50

# molecule, observed-value
records = [
    ("O=C1C[C@@H](c2ccc(O)cc2)Oc2cc(O)cc(O)c21 [Naringenin]", 4.52),
    ("O=c1cc(-c2ccc(O)cc2)oc2cc(O)cc(O)c12 [Apigenin]", 4.48),
    ("O=c1cc(-c2ccc(O)c(O)c2)oc2cc(O)cc(O)c12 [Luteolin]", 4.43),
    ("O=c1c(O)c(-c2ccc(O)cc2)oc2cc(O)cc(O)c12 [Kaempferol]", 4.37),
    ("COc1ccc([C@@H]2CC(=O)c3c(O)cc(O)cc3O2)cc1O [Hesperetin]", 4.40),
    ("O=c1c(O)c(-c2ccc(O)c(O)c2)oc2cc(O)cc(O)c12 [Quercetin]", 4.32),
]
